Molecular target: UniProtKB P29466
Sequence (P29466 120-297 limits assumed): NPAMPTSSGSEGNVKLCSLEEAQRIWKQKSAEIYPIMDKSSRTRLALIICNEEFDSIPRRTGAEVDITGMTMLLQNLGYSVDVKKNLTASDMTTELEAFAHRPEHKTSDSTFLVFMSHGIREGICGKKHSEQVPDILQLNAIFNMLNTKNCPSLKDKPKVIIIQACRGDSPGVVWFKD
Sequence (P29466 317-404 limits assumed): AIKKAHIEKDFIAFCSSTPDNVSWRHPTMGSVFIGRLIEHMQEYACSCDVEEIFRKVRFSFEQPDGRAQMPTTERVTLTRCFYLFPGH
quantity: Ki

Lookup: Would you kindly share the measured Ki for CC(=O)Nc1ccc(C(=O)N[C@H](C(=O)N2CCC[C@H]2C(=O)N[C@H](C=O)CC(=O)O)C2CCCCC2)c(Cl)c1 [II-50] ?
Found: < 0.01 µM

Lookup: Input CC(C)(C)[C@H](NC(=O)c1ccc(N)c(Cl)c1)C(=O)N1[C@@H]2CC[C@@H](C2)[C@H]1C(=O)N[C@H](C=O)CC(=O)O (stereo in doubt) [II-65]
Found: < 0.01 µM

Lookup: Input CC(=O)Nc1ccc(C(=O)N[C@H](C(=O)N2[C@@H]3CC[C@@H](C3)[C@H]2C(=O)N[C@H](C=O)CC(=O)O)C(C)(C)C)cc1Cl (stereo in doubt) [II-62]
Found: < 0.01 µM
